test_name: qHTS Screen of the MIPE 4.0 Collection Against Ewings Sarcoma (RDES) (AID 1259252); also: nearly all actives have a fitted effect of over 35% in size
study_conditions: RD-ES Ewing sarcoma viability, CellTiter-Glo, 48 h; series mostly up to 45.8 µM
Records with an inconclusive call do not appear. Activity calls are given as the source filed them. Calls follow the shape of the dose curve; as a rule, active = well fitted inhibition curve with a large enough effect; inconclusive = small, poorly fitted or top-dose-only effect; inactive = no such curve, though single readings can be large or run the other way.
Field 'call' accepts Y for active, N for inactive

Below are worked cases with known answers.
• Nc1nc(Nc2ccc(S(N)(=O)=O)cc2)nn1C(=O)c1c(F)cccc1F = Y
• Nc1cc(C(F)(F)F)c(-c2cc(N3CCOCC3)nc(N3CCOCC3)n2)cn1 = Y
• NC(=O)c1cccc2cn(-c3ccc([C@@H]4CCCNC4)cc3)nc12 = Y
• O=c1[nH]c(=O)n(C2CCCO2)cc1F (stereo unspecified) = N
• O=C(Nc1cc(C(F)(F)F)cc(C(F)(F)F)c1)c1cc(Cl)ccc1O = Y

Assay outcome for "Cc1ccc(C(=O)Nc2ccc(CN3CCN(C)CC3)c(C(F)(F)F)c2)cc1C#Cc1cnc2cccnn12" : what was it? Y
